# assayComment: Toxicokinetic (TK) study in dogs, 28-day
# Type: in vivo, dog
# reportedConditions: female, dog, in vivo, 45 mg/kg/day, Study Day 28, Female
readout: Cmax (ng/mL)
Your answer should be a plain number; it is taken to be in ng/mL.

Ask: Give the value of Cmax reported for the following: C=CC(=O)N1CC[C@@H](n2nc(-c3ccc(Oc4c(F)c(F)cc(F)c4F)cc3F)c3c(N)ncnc32)C1
Reply: 1060

###

# assayComment: Toxicokinetic (TK) study in rats, 28-day
# Type: in vivo, rat
# reportedConditions: female, rat, in vivo, 100 mg/kg, Study Day 1, Female
readout: Cmax (ng/mL)
Supply the numeric figure in ng/mL, leaving out any unit text.

Ask: // fetch Cmax given entry C=CC(=O)N1CC[C@@H](n2nc(-c3ccc(Oc4c(F)c(F)cc(F)c4F)cc3F)c3c(N)ncnc32)C1
Reply: 3700

###

# assayComment: Toxicokinetic (TK) study in dogs, 28-day
# Format: in vivo, dog
# reportedConditions: male, dog, in vivo, 105 mg/kg/day, Study Day 28, Male
readout: Cmax (ng/mL)
Express the result in ng/mL but write the number alone.

Ask: Please look at this compound and report its Cmax: C=CC(=O)N1CC[C@@H](n2nc(-c3ccc(Oc4c(F)c(F)cc(F)c4F)cc3F)c3c(N)ncnc32)C1 [Compound 45]
Reply: 2700

###

# assayComment: Toxicokinetic (TK) study in dogs, 28-day
# Format: in vivo, dog
# reportedConditions: male, dog, in vivo, 150 mg/kg/day, Study Day 1, Male, read-out: AUC0-24 h
readout: AUC(0-t) (ng·h/mL)
API: value field is a number in ng·h/mL; no unit string.

Ask: State its AUC(0-t) for this compound: C=CC(=O)N1CC[C@@H](n2nc(-c3ccc(Oc4c(F)c(F)cc(F)c4F)cc3F)c3c(N)ncnc32)C1 [Compound 45]
Reply: 22900

###

# assayComment: Pharmacokinetic study in male SD rats
# Type: in vivo
# reportedConditions: rat, plasma, PO, 10 mg/kg
# Procedure: A pharmacokinetic study in male SD rats: Male SD rats for pharmacokinetic study within 24 hours were divided into two groups: intravenous administration and oral administration. Each group has three animals. For group of intravenous administration, blood samples were collected at pre-dose, 0.0833, 0.167, 0.5, 1, 2, 4, 8, 24 h post-dose; for group of oral administration, blood samples were collected at pre-dose, 0.167, 0.5, 1, 2, 4, 8, 24 h post-dose. […]
readout: bioavailability (%)
The reply should contain only the number, in %.

Ask: Give the value of bioavailability reported for the following: C=CC(=O)N1CC[C@@H](n2nc(-c3ccc(Oc4c(F)c(F)cc(F)c4F)cc3F)c3c(N)ncnc32)C1
Reply: 37.1

###

# measuredOn: BTK wild type (Homo sapiens (Human))
# Sequence (Q06187 whole entry): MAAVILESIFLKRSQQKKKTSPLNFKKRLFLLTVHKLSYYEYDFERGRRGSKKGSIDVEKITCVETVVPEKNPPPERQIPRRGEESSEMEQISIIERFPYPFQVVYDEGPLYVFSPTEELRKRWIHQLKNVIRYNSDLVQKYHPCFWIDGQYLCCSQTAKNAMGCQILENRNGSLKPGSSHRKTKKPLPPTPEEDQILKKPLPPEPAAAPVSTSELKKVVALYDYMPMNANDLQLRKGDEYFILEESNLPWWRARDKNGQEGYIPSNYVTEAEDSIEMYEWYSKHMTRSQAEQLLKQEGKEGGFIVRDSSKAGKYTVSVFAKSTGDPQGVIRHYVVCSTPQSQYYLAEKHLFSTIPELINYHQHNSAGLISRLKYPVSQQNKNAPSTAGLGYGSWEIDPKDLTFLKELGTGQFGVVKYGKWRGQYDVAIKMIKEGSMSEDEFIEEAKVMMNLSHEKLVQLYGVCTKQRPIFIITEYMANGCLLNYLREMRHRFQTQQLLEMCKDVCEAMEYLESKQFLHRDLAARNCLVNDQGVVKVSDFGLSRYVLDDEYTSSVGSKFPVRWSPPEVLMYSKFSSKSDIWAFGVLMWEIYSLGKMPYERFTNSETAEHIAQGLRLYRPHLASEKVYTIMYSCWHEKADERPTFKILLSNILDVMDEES
# assayComment: Inhibition assay of BTK kinase activity (HTRF)
# Assay type: biochemical
# reportedConditions: read-out: BTK IC50
# Protocol: Inhibition Assay of BTK Kinase Activity: The enzyme reaction mixture of BTK wild type standard HTRF assay contained 1 nM BTK wild type, 1 μM biotin-TK1 peptide, and 30 μM ATP in a buffer. The enzyme reaction were carried out at room temperature for 60 minutes. […] The plates were incubated at room temperature for 60 minutes and then read in the Envision plate reader.
readout: IC50

# count of solved cases: 2
C=CC(=O)NC(C)(C)Cn1nc(-c2ccc(Oc3c(F)c(F)cc(F)c3F)cc2F)c2c(N)ncnc21
8 nM
CCOC(=O)/C=C/CNC(=O)N1CCCC(n2nc(-c3ccc(Oc4c(F)c(F)cc(F)c4F)cc3F)c3c(N)ncnc32)C1 (stereo not shown)
3 nM

Ask: Determine reported IC50 for C=CC(=O)N1CCCC(n2nc(-c3ccc(C(=O)c4cccc(F)c4)c(F)c3)c3c(N)ncnc32)C1 (stereo not shown) ; test system: BTK wild type (Homo sapiens (Human)).
Reply: 10 nM

Ask: Please report IC50 with BTK wild type (Homo sapiens (Human)) for item CNC(=O)C(=O)N1CCCC(n2nc(-c3ccc(Oc4c(F)c(F)cc(F)c4F)cc3F)c3c(N)ncnc32)C1 (stereo not shown) .
Reply: 692 nM
